Tested target: 11β-HSD1 (Homo sapiens, UniProt P28845)
Construct: detecting cortisol generated from cortisterone by human liver microsomes; from tissue; host or cells: human liver microsomes
Sequence (P28845 whole entry): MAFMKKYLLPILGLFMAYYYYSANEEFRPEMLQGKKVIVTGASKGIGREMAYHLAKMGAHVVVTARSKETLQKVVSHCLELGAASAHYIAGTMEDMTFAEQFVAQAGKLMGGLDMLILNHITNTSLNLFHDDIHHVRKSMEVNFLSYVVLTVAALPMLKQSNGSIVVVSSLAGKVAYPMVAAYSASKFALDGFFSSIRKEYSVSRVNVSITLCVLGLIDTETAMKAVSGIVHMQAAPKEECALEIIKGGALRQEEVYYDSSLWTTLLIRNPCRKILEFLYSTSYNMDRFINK
Measurement notes: In vitro inhibition of 11β-HSD1, HTRF detection of cortisol generated by human liver microsomes
Type: biochemical
Condition notes: read-out: Average % control inhibition at 100 nM
Property measured: remaining activity at 0.1 µM
Answer as a quantity: numeral, then unit.

C[C@@H](c1ccc(-c2ccco2)cc1)N1CC[C@](CC(C)(C)O)(c2ccccc2)OC1=O [Example 13] :: -2%
Cc1noc(C)c1-c1ccc([C@H](C)N2CC[C@](CC(C)(C)O)(c3ccccc3)OC2=O)cc1 [Example 10] :: 20%
C[C@@H](c1ccc(-c2ccsc2)cc1)N1CC[C@](CC(C)(C)O)(c2ccccc2)OC1=O [Example 11] :: 13%
Cc1nc(-c2ccc([C@H](C)N3CC[C@](CC(C)(C)O)(c4ccccc4)OC3=O)cc2)no1 [Example 6] :: 40%
C[C@@H](c1ccc(-c2nc3c(=O)n(C)c(=O)n(C)c3n2C)cc1)N1CC[C@](CC(C)(C)O)(c2ccccc2)OC1=O [Example 12] :: 98%

Lab note: C[C@@H](c1ccc(C(N)=O)cc1)N1CC[C@](CC(C)(C)O)(c2ccccc2)OC1=O [Example 8] gave remaining activity at 0.1 µM of 92%

Record C[C@@H](c1ccc(-c2nnco2)cc1)N1CC[C@](CC(C)(C)O)(c2ccccc2)OC1=O [Example 5] . Reported remaining activity at 0.1 µM: 48%
